// data source = ChEMBL document CHEMBL4020741

# Tested on: Plasma
# Assay Method Text: Anticoagulant activity in factor 7a deficient human plasma assessed as concentration required to double prothrombin time after 3 mins by Thromboplastin C Plus reagent based assay
# Format: functional
Readout Type: 2PT

>>> val("Cc1cc2cc(C)c1CCOC(=O)Nc1ccc(S(=O)(=O)C3CC3)c(c1)CN(C)C(=O)[C@@H]2Nc1ccc2cc[nH]c(=O)c2c1")
"3.1 µM"
>>> val("CCc1cc2ccc1CCOC(=O)Nc1ccc(SC(C)C)c(c1)CN(C)C(=O)[C@@H]2Nc1cccc(C(N)=O)c1")
"42 µM"
>>> val("CCS(=O)(=O)c1ccc2cc1CN(C)C(=O)[C@H](Nc1ccc3cc[nH]c(=O)c3c1)c1ccc(cc1)CCOC(=O)N2")
"17 µM"
>>> val("Cc1cc2cc(C)c1CCOC(=O)Nc1cccc(c1)[C@@H](CC(=O)O)NC(=O)[C@@H]2Nc1ccc2cc[nH]c(=O)c2c1")
"71 µM"
>>> val("CCc1cc2ccc1CCOC(=O)Nc1ccc(S(=O)(=O)C(C)C)c(c1)CN(C)C(=O)[C@@H]2Nc1cccc(C(N)=O)c1 (stereo in doubt; 14)")
"2.9 µM"
>>> val("CC(C)S(=O)(=O)c1ccc2cc1CN(C)C(=O)[C@H](Nc1cccc(C(N)=O)c1)c1ccc(cc1)CCOC(=O)N2")
"78 µM"

* * *

# Target Desc: Coagulation factor X (Homo sapiens)
# Sequence (P00742 41-179 limits assumed): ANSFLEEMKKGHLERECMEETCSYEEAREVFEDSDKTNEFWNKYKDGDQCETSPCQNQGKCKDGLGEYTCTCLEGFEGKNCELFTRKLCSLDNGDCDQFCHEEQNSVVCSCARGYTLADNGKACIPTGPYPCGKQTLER
# Sequence (P00742 235-488 limits assumed): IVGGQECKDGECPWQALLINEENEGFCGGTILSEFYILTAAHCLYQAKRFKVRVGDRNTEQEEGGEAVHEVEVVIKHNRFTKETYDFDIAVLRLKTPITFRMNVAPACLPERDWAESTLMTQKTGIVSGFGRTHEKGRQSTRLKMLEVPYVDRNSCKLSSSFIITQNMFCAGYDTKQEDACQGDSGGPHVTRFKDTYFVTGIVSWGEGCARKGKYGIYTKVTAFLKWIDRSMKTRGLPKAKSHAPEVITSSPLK
# Assay Method Text: Inhibition of tissue factor/factor 7a activated human coagulation factor-10a using S2765 as substrate pretreated with substrate for 15 mins followed by enzyme and tissue factor/factor 7a addition measured for 60 mins
Reported Ki by item:
Readout Type: Ki (µM)

>>> val("CCc1cc2ccc1CCOC(=O)Nc1ccc(S(=O)(=O)C(C)C)c(c1)CN(C)C(=O)[C@@H]2Nc1cccc(C(N)=O)c1 (stereo in doubt; 14)")
5.8
>>> val("Cc1cc2cc(C)c1CCOC(=O)Nc1ccc(S(=O)(=O)C3CC3)c(c1)CN(C)C(=O)[C@@H]2Nc1ccc2cc[nH]c(=O)c2c1")
2.8
